Molecular target: Histamine H1 receptor (Homo sapiens)
Sequence (P35367 whole entry): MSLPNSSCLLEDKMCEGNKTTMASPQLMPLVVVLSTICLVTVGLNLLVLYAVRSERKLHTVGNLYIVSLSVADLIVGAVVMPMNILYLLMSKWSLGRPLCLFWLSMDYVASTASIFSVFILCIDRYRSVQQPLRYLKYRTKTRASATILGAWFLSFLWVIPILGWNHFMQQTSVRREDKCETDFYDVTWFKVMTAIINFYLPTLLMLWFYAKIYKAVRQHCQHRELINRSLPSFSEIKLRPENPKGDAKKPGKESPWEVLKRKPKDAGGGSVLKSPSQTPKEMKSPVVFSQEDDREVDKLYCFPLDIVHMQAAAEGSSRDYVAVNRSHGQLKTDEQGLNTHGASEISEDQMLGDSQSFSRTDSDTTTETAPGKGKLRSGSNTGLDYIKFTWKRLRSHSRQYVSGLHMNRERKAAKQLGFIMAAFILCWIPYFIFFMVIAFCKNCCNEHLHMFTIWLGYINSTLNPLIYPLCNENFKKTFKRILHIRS
Assay: Antagonist activity at human recombinant histamine H1 receptor expressed in intact CHO cells assessed as inhibition of histamine-induced cellular calcium mobilization by FLIPR assay
Quantity Kind: Ki (nM)

Previously resolved entries follow.
Request: Input COc1ccc(Cc2nn(C[C@H]3CCCN3C)c(=O)c3ccccc23)cc1OC , output reported Ki.
Response: 1580

Request: Input CN1CCC[C@@H]1Cn1nc(Cc2cccc(Cl)c2)c2ccccc2c1=O , output reported Ki.
Response: 1.58

Request: Input O=c1c2ccccc2c(Cc2ccc(Cl)cc2)nn1C[C@H]1CCCN1CCCCc1ccc(OCCCN2CCCCCC2)cc1 [GSK-1004723] , output reported Ki.
Response: 10

Request: Input O=c1c2ccccc2c(Cc2ccc(Cl)cc2)nn1C1CCCN(CCCc2ccc(OCCCN3CCCCCC3)cc2)CC1 (stereo unspecified) , output reported Ki.
Response: 15.8

Request: Input CN1CCC[C@@H]1Cn1nc(Cc2ccc(F)cc2)c2ccccc2c1=O , output reported Ki.
Response: 0.316

Request: Input O=c1c2ccccc2c(Cc2ccc(Cl)cc2)nn1C1CCCN(CCc2ccc(OCCCN3CCCCCC3)cc2)CC1 (stereo unspecified) , output reported Ki.
Response: 15.8

(a) O=c1c2ccccc2c(Cc2ccc(O)cc2)nn1C[C@H]1CCCN1CCCCc1ccc(OCCCN2CCCCCC2)cc1
(b) O=c1c2ccccc2c(Cc2ccc(Cl)cc2)nn1C1CCCN(Cc2ccc(OCCCN3CCCCCC3)cc2)CC1 (stereo unspecified)
Request: Which value of Ki is numerically greater: that of a or that of b ? Refer to your chosen entry by its label in the reply.
Response: b
(b: 50.1 nM, a: 12.6 nM)

(a) COC(=O)c1ccc(Cc2nn(C[C@H]3CCCN3C)c(=O)c3ccccc23)cc1
(b) O=c1c2ccccc2c(Cc2ccc(Cl)cc2)nn1C[C@H]1CCCN1CCCCCc1ccc(OCCCN2CCCCCC2)cc1
Request: Which value of Ki is numerically greater: that of a or that of b ? Refer to your chosen entry by its label in the reply.
Response: a
(a: 631 nM, b: 12.6 nM)

---

Target: UniProt:Q9Y5N1
Sequence (Q9Y5N1 whole entry): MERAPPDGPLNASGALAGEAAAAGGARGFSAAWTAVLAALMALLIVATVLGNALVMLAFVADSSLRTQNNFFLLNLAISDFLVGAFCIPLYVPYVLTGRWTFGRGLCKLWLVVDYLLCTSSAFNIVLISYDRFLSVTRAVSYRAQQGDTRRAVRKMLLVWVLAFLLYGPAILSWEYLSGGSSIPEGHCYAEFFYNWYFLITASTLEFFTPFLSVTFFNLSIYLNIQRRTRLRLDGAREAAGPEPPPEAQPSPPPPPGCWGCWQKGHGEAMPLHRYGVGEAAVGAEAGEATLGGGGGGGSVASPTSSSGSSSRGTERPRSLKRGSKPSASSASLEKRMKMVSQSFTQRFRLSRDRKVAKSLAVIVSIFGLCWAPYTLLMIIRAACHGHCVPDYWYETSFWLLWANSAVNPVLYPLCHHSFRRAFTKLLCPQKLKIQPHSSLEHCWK
Test: Antagonist activity at human recombinant histamine H3 receptor expressed in CHO cells assessed as inhibition of histamine-induced GTP-gammaS binding
Measured Ki of individual entries

Previously resolved entries follow.
Request: Input COc1ccc(Cc2nn(C[C@H]3CCCN3C)c(=O)c3ccccc23)cc1OC , output reported Ki.
Response: > 0.631 µM

Request: Input CN1CCC[C@@H]1Cn1nc(CCc2ccccc2)c2ccccc2c1=O , output reported Ki.
Response: > 2 µM

Request: Input CN1CCCCC(n2nc(Cc3ccc(Cl)cc3)c3ccccc3c2=O)C1 (configuration not stated) , output reported Ki.
Response: > 0.631 µM

Request: Input CN1CCC[C@@H]1Cn1nc(Cc2ccc(C(=O)O)cc2)c2ccccc2c1=O , output reported Ki.
Response: > 0.631 µM

Next:
Request: Input CN(C)CCn1nc(Cc2ccc(Cl)cc2)c2ccccc2c1=O , output reported Ki.
Response: > 0.501 µM

Request: Input Cc1ccc(Cc2nn(C[C@H]3CCCN3C)c(=O)c3ccccc23)cc1 , output reported Ki.
Response: > 0.631 µM

Request: Input CN1CCC[C@@H]1Cn1nc(Cc2cccc(Cl)c2)c2ccccc2c1=O , output reported Ki.
Response: > 0.631 µM

---

Biological target: Alpha-1A adrenergic receptor (Homo sapiens)
Assay: Binding affinity to human adrenergic alpha1A receptor expressed in rat intact fibroblasts
pKi: −log10 of the molar value.
Quantity Kind: pKi

Previously resolved entries follow.
Request: For Alpha-1A adrenergic receptor (Homo sapiens), give the measured pKi of the entry CN(C)CCn1nc(Cc2ccc(Cl)cc2)c2ccccc2c1=O
Response: 6.80

Request: For Alpha-1A adrenergic receptor (Homo sapiens), give the measured pKi of the entry CN1CCC[C@@H]1Cn1nc(Cc2cccc(F)c2)c2ccccc2c1=O
Response: 7.30

Request: For Alpha-1A adrenergic receptor (Homo sapiens), give the measured pKi of the entry CN1CCC(n2nc(Cc3ccc(Cl)cc3)c3ccccc3c2=O)CC1
Response: 7.80

Request: For Alpha-1A adrenergic receptor (Homo sapiens), give the measured pKi of the entry O=c1c2ccccc2c(Cc2ccc(Cl)cc2)nn1C1CCCN(CCCCc2ccc(OCCCN3CCCCCC3)cc2)CC1 (centres undefined)
Response: 6.80

(a) CN1CCC[C@@H]1Cn1nc(Cc2cccc(Cl)c2)c2ccccc2c1=O
(b) O=c1c2ccccc2c(Cc2ccc(Cl)cc2)nn1C[C@H]1CCCN1CCCCCc1ccc(OCCCN2CCCCCC2)cc1
Request: Which value of pKi is numerically greater: that of a or that of b ? Refer to your chosen entry by its label in the reply.
Response: b

(A) CN(C)CCCn1nc(Cc2ccc(Cl)cc2)c2ccccc2c1=O
(B) COc1cccc(Cc2nn(C[C@H]3CCCN3C)c(=O)c3ccccc23)c1
Request: Which value of pKi is numerically greater: that of A or that of B ? Refer to your chosen entry by its label in the reply.
Response: A

(1) CN1CCC[C@@H]1Cn1nc(CCc2ccccc2)c2ccccc2c1=O
(2) O=c1c2ccccc2c(Cc2ccc(Cl)cc2)nn1C1CCCN(CCCc2ccc(OCCCN3CCCCCC3)cc2)CC1 (centres undefined)
(3) CN1CCC[C@H]1Cn1nc(Cc2ccc(Cl)cc2)c2ccccc2c1=O
Request: Place the items in sequence of falling pKi. Please respond by ranking the labels in the order requested.
Response: 3, 2, 1
(3: 7.40, 2: 6.90, 1: 6.70)

---

Biological target: Alpha-1A adrenergic receptor (Homo sapiens, UniProt P35348)
Sequence (P35348 whole entry): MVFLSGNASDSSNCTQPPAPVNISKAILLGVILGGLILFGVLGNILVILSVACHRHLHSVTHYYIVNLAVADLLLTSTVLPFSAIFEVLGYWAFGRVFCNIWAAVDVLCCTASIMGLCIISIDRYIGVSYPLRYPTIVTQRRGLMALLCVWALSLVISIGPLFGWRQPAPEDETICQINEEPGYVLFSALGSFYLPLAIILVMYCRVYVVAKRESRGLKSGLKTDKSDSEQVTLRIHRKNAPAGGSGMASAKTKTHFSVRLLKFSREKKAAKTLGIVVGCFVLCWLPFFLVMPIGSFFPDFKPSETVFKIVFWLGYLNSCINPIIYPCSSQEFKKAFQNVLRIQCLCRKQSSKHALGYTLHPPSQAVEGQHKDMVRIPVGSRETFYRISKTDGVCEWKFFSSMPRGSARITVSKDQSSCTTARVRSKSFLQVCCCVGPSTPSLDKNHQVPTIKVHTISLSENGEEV
Assay: Binding affinity to human adrenergic alpha1A receptor expressed in rat intact fibroblasts
pKi: −log10 of the molar value.
Measured pKi of individual entries

Request: Input CN1CCC[C@@H]1Cn1nc(Cc2ccc(C(=O)O)cc2)c2ccccc2c1=O , output reported pKi.
Response: < 5.70

Request: Input COC(=O)c1ccc(Cc2nn(C[C@H]3CCCN3C)c(=O)c3ccccc23)cc1 , output reported pKi.
Response: < 5.70

Please turn your attention to the following entry.
Request: Input CN1CCC(Cn2nc(Cc3ccc(Cl)cc3)c3ccccc3c2=O)C1 (stereo not drawn) , output reported pKi.
Response: 7.00

---

Biological target: Histamine H1 receptor (Homo sapiens)
Test: Antagonist activity at human recombinant histamine H1 receptor expressed in intact CHO cells assessed as inhibition of histamine-induced cellular calcium mobilization by FLIPR assay
pKi: −log10 of the molar value.
Quantity Kind: pKi

Request: Input Cc1cccc(Cc2nn(C[C@H]3CCCN3C)c(=O)c3ccccc23)c1 , output reported pKi.
Response: 9.10

Request: Input CN1CCC[C@@H]1Cn1nc(Cc2cccc(F)c2)c2ccccc2c1=O , output reported pKi.
Response: 9.30

(I) CN1CCC[C@@H]1Cn1nc(Cc2ccc(O)cc2)c2ccccc2c1=O
(II) O=c1c2ccccc2c(Cc2ccc(Cl)cc2)nn1C1CCCN(CCCCc2ccc(OCCCN3CCCCCC3)cc2)CC1 (centres undefined)
Request: For the pair I and II , which entry has the numerically smaller recorded pKi? Refer to your chosen entry by its label in the reply.
Response: II
(II: 7.70, I: 9.80)

---

Molecular target: Alpha-1B adrenergic receptor (Homo sapiens, UniProt P35368)
Sequence (P35368 whole entry): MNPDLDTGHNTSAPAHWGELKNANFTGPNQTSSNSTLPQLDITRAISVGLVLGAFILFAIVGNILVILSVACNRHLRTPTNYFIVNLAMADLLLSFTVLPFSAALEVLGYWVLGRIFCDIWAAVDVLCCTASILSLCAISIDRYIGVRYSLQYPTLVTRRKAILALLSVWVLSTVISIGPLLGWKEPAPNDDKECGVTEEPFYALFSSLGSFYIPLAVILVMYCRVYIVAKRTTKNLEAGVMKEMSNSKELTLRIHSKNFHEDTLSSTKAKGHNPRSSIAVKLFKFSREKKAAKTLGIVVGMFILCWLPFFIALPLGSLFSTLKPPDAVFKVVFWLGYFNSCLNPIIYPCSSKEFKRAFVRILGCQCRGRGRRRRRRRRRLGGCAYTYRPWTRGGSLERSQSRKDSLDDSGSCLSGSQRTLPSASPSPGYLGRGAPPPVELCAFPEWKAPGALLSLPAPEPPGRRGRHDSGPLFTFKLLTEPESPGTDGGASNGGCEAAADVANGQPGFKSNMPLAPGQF
Assay: Binding affinity to human adrenergic Alpha-1B receptor expressed in rat intact fibroblasts
pKi: −log10 of the molar value.
Quantity Kind: pKi

Previously resolved entries follow.
Request: Input CN1CCC[C@@H]1Cn1nc(Cc2ccc(C(C)(C)C)cc2)c2ccccc2c1=O , output reported pKi.
Response: < 5.70

Request: Input COc1cccc(Cc2nn(C[C@H]3CCCN3C)c(=O)c3ccccc23)c1 , output reported pKi.
Response: < 5.70

Request: Input CN1CCC[C@@H]1Cn1nc(Cc2ccc(C(=O)O)cc2)c2ccccc2c1=O , output reported pKi.
Response: < 5.70

Request: Input CCOc1ccc(Cc2nn(C[C@H]3CCCN3C)c(=O)c3ccccc23)cc1 , output reported pKi.
Response: < 5.70

Request: Input CN1CCC[C@@H]1Cn1nc(CC2CCCCC2)c2ccccc2c1=O , output reported pKi.
Response: < 5.70

Next:
Request: Input COc1ccc(Cc2nn(C[C@H]3CCCN3C)c(=O)c3ccccc23)cc1OC , output reported pKi.
Response: < 5.70

Request: Input CN1CCCC(n2nc(Cc3ccc(Cl)cc3)c3ccccc3c2=O)CC1 (racemic) , output reported pKi.
Response: 7.30

Request: Input Cc1cccc(Cc2nn(C[C@H]3CCCN3C)c(=O)c3ccccc23)c1 , output reported pKi.
Response: 6.30

Request: Input COC(=O)c1ccc(Cc2nn(C[C@H]3CCCN3C)c(=O)c3ccccc23)cc1 , output reported pKi.
Response: < 5.70

Request: Input CN1CCC[C@@H]1Cn1nc(Cc2cccc(F)c2)c2ccccc2c1=O , output reported pKi.
Response: 6.40

Request: Input CN1CCC(Cn2nc(Cc3ccc(Cl)cc3)c3ccccc3c2=O)C1 (configuration not stated) , output reported pKi.
Response: 7.10

Request: Input CN(CCCCc1ccc(OCCCN2CCCCCC2)cc1)CCn1nc(Cc2ccc(Cl)cc2)c2ccccc2c1=O , output reported pKi.
Response: < 5.70
